study_system: T1, tip-chimeric peptide IhfA5-mIhfB4NTHI (nontypeable Haemophilus influenzae …)
T1 construct: also called IHF(NTHI) tip chimeric peptide; IHFNTHI tip chimeric peptide
T1 peptide: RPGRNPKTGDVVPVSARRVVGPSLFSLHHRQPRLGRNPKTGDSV
assay_summary: SPR Biacore 3000, peptide immobilized, HuMab as analyte
value_kind: koff (s⁻¹)
# number only, unit s⁻¹ dropped from output

Consider the reported koff for these binders:
>  <binder>
humanized anti-tip monoclonal antibody, heavy chain SEQ ID NO: 2 and light chain SEQ ID NO: 9 (antibody, V domains shown, also called H10211 (1F8.F1 Humanized HC2) + L10212 (1F8.F1 Humanized LC3)) VH: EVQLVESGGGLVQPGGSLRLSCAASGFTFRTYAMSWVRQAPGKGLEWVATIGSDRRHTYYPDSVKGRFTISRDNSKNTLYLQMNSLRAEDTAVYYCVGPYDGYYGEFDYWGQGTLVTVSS VL: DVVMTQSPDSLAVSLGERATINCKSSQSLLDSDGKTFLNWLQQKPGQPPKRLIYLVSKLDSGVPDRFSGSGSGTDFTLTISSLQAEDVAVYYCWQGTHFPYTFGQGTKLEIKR

>  <koff [s⁻¹]>
1.2e-05

$$$$
>  <binder>
humanized anti-tip monoclonal antibody, heavy chain SEQ ID NO: 1 and light chain SEQ ID NO: 7 (antibody, V domains shown, also called HuTipMab; TP-21949) VH: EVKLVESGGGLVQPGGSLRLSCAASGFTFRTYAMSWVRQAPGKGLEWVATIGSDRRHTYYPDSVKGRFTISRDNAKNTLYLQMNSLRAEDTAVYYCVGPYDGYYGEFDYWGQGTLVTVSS VL: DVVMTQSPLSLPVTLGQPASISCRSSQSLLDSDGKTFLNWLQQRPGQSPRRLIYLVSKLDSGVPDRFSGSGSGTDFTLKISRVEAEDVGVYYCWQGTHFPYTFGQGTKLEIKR

>  <koff [s⁻¹]>
0.00022

$$$$

Note: attention shifts to another entry.
Q: Record request: koff value, item humanized anti-tip monoclonal antibody, heavy chain SEQ ID NO: 1 and light chain SEQ ID NO: 9 (antibody, V domains shown, also called H10210 (1F8.F1 Humanized HC1) + L10212 (1F8.F1 Humanized LC3)) VH: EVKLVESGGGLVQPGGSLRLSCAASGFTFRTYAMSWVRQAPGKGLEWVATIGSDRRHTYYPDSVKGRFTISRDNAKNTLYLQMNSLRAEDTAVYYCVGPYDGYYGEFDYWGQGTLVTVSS VL: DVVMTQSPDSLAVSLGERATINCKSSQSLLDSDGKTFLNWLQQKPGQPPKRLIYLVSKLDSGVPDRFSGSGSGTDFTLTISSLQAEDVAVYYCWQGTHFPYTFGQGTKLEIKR
A: 1.3e-05
